- Test system: pigweed (Amaranthus retroflexus)
- assay_method_text: Test C postemergence, visual plant response rating
- Assay type: in vivo
- measurement_setup: Test C, postemergence, 125 g ai/ha
Known Pigweed plant response rating (0 to 100 scale) of a selection of compounds

In [3]: df
Out[3]:
                                 smiles_str  meas_value
0  CON=C(c1cc(Cl)cc(Cl)c1)c1c(O)c(C)nn(C)c1=O          90
1  CC(C)O/N=C(\c1c(O)c(Cl)nn(C)c1=O)c1cc(Br)cc2ccccc12          90
2  CCO/N=C(\c1c(O)c(Cl)nn(C)c1=O)c1ccc(F)c2ccccc12          90
3  CC(C)O/N=C(/c1c(O)c(Cl)nn(C)c1=O)c1cc(Br)cc2ccccc12          90
4  C#CCON=C(c1cccc(OC(F)F)c1)c1c(O)c(C)nn(C)c1=O          70
5  C=CCON=C(c1cc(Cl)cc(Cl)c1Cl)c1c(O)c(C)nn(C)c1=O          20

// next entry
Entry CON=C(c1csc(C)c1)c1c(O)c(C)nn(C)c1=O , Pigweed plant response rating (0 to 100 scale) reported as 10

----------
- Tested on: galium (catchweed bedstraw, Galium aparine)
- assay_method_text: Test A postemergence, visual plant response rating
- Assay type: in vivo
- measurement_setup: Postemergence, 125 g ai/ha; 0 to 100 scale (0 no effect, 100 complete control)
Known Galium plant response rating of a selection of molecules
Write the number on its own, no unit after it.

Guide cases for Galium plant response rating, answers given:
In [3]: df
Out[3]:
                                   molecule                  readout_name  meas_value
0  CON=C(c1c(OC(C)=O)c(C)nn(C)c1=O)c1cccc2ccccc12 [Compound 120]  Galium plant response rating          80
1  Cc1ccccc1/C(=N/OC(C)C)c1c(O)c(C)nn(C)c1=O [Compound 19]  Galium plant response rating          80

Entry CCCO/N=C(\c1c(O)c(C)nn(C)c1=O)c1cccc2ccccc12 [Compound 80] , Galium plant response rating reported as 80

----------
- Tested on: Italian ryegrass (Lolium mutiflorum)
- assay_method_text: Test C postemergence, visual plant response rating
- Assay type: in vivo
- measurement_setup: Test C, postemergence, 125 g ai/ha
Known Ryegrass, Italian plant response rating (0 to 100 scale) of a selection of compounds
Write the number on its own, no unit after it.

In [3]: df
Out[3]:
                                   compound  meas_value
0  CO/N=C(/c1cc(Cl)cc(OC)c1)c1c(O)c(C)nn(C)c1=O         100
1  CON=C(c1cc(F)cc(F)c1F)c1c(O)c(C)nn(C)c1=O [Compound 227]          40
2  CO/N=C(/c1c(O)c(C)nn(C)c1=O)c1cccc2cc(Cl)ccc12 [Compound 301]          10

// next entry
Entry CCO/N=C(\c1cc(Cl)cc(Cl)c1Cl)c1c(O)c(C)nn(C)c1=O , Ryegrass, Italian plant response rating (0 to 100 scale) reported as 100

----------
- Tested on: barnyardgrass (Echinochloa crus-galli)
- assay_method_text: Test A postemergence, visual plant response rating
- Type: in vivo
- measurement_setup: Postemergence, 125 g ai/ha; 0 to 100 scale (0 no effect, 100 complete control)
- Text: […]
Hi! Could you tag entries with Barnyardgrass plant response rating below 10 as 1.0, and those at or above as 0.0? Much appreciated.

Examples from the recorded data:
>>> print(df.to_string())
                                   molecule  class_assignment
0  CO/N=C(/c1c(O)c(Cl)nn(C)c1=O)c1cccc2ccccc12               0.0
1  CCCO/N=C(/c1c(O)c(C)nn(C)c1=O)c1cccc2ccccc12               0.0
2  CON=C(c1cccc(Cl)c1)c1c(O)c(C)nn(C2CC2)c1=O (mixture of isomers)               1.0

INPUT: Is 10 strictly greater than the molecule's reported Barnyardgrass plant response rating? molecule: CON=C(c1c(O)c(C)nn(C)c1=O)c1csc2ccccc12 (single isomer, unassigned)
OUTPUT: 1.0

INPUT: Is 10 strictly greater than the molecule's reported Barnyardgrass plant response rating? molecule: Cc1ccccc1/C(=N\OC(C)C)c1c(O)c(C)nn(C)c1=O
OUTPUT: 0.0

INPUT: Is 10 strictly greater than the molecule's reported Barnyardgrass plant response rating? molecule: CCn1nc(C)c(O)c(/C(=N/OC)c2cccc(C)c2)c1=O
OUTPUT: 1.0
